target: Bromodomain-containing protein 4 (Homo sapiens, UniProt O60885); note: test concentration or dose not given here
Hi, to clarify the labels: fulfilled covers deltaTm from 5 K upward, not fulfilled covers anything below 5 K.

Here's what some known entries look like.
CCOc1cc(C(=O)NC2CCN(C)CC2)ccc1Nc1ncc2c(n1)N(C1CCCC1)[C@@H](CC)C(=O)N2C ... not fulfilled
CCOc1cc(C(=O)NC2CCN(C)CC2)ccc1Nc1ncc2c(n1)N(C1CCCC1)[C@H](CC)C(=O)N2C ... fulfilled
CCOc1cc(C2CCN(C)CC2)ccc1Nc1ncc2c(n1)N(Cc1cccc(Cl)c1)[C@H](CC)C(=O)N2C ... fulfilled
CCOc1cc(C(=O)NC2CCN(C)CC2)ccc1Nc1ncc2c(n1)N(Cc1cccc(Br)c1)[C@H](CC)C(=O)N2C ... fulfilled
CCOc1cc(C2CCN(C)CC2)ccc1Nc1ncc2c(n1)N(Cc1ccccc1)[C@H](CC)C(=O)N2C ... not fulfilled
CCOc1cc(C2CCN(C)CC2)ccc1Nc1ncc2c(n1)N(Cc1ccc(Br)cc1)[C@H](CC)C(=O)N2C ... fulfilled
CC[C@@H]1C(=O)N(C)c2cnc(Nc3ccc(C4CCN(C)CC4)cc3OC)nc2N1C1CCCC1 ... fulfilled
CCOc1cc(C2CCN(C)CC2)ccc1Nc1ncc2c(n1)N(Cc1sccc1C)[C@H](CC)C(=O)N2C ... fulfilled

Qu. Is the recorded value of deltaTm equal to or greater than 5 K for this molecule? CCOc1cc(C2CCN(C)CC2)ccc1Nc1ncc2c(n1)N(Cc1scnc1C)[C@H](CC)C(=O)N2C
Ans. not fulfilled

These measurements were taken from ChEMBL document CHEMBL4400550.
